Would you mind telling me the reported Ki of each entry?
Biological target: UniProtKB Q9QZN9
Sequence (Q9QZN9 whole entry): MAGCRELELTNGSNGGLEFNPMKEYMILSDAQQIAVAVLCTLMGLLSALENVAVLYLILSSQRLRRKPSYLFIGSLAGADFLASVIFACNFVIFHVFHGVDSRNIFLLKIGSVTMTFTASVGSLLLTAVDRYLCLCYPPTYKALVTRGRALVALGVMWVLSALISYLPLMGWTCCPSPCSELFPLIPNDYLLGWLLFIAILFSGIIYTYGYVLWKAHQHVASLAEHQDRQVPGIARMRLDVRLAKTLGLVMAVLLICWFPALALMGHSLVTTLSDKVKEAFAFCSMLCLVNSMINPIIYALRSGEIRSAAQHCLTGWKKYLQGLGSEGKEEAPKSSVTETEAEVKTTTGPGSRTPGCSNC

Use these answered entries as a reference point.
Query string: Give reported Ki value for CCCCCn1cc(C(=O)Nc2ccc(F)cc2)c(=O)c2c(C)nn(C)c21
Result string: > 10000 nM

Query string: Given CCCCCn1cc(C(=O)NC23CC4CC(CC(C4)C2)C3)c(=O)c2c(CC)nn(C)c21 , respond with its Ki.
Result string: 97 nM

Query string: State its Ki for this molecule: CCCCCCn1cc(C(=O)NC2CCCCC2)c(=O)c2c(C)nn(C)c21
Result string: 480 nM

Query string: Entry CCOCCn1cc(C(=O)NC2CCCCC2)c(=O)c2c(C)nn(C)c21 needs its Ki filled in; supply it.
Result string: > 10000 nM

Query string: For the molecule CCCCCn1cc(C(=O)NC23CC4CC(CC(C4)C2)C3)c(=O)c2c(C(C)(C)C)nn(C)c21 , report Ki.
Result string: 417 nM

Please look at the items below and tell me Ki for each one, in order.
1. CCCCCn1cc(C(=O)NC2CCCCC2)c(=O)c2c(CC)nn(C)c21
2. CCCCCn1cc(C(=O)NC2CCCCCC2)c(=O)c2c(C)noc21
3. CCCCCn1cc(C(=O)NC23CC4CC(CC(C4)C2)C3)c(=O)c2c(C)nn(C)c21
4. CCCCCn1cc(C(=O)N[C@H]2CC[C@H](C)CC2)c(=O)c2c(C)nn(C)c21

Result string:
1. 516 nM
2. 50 nM
3. 11.4 nM
4. 13.3 nM

Cited source for all entries: ChEMBL document CHEMBL2311525
